Task for the reader: assign each of the following compounds its reported fraction unbound.
protocol_text: Plasma protein binding (equilibrium dialysis), human plasma
Type: in vitro ADME
setup_conditions: read-out: PPB human fu
One number for each entry.

C=CC(=O)N1[C@@H](C)CN(c2cc(O[C@@H](C)[C@@H]3CCCN3C)nc(-c3cc([C@@]4(C)CCCc5sc(N)c(C#N)c54)on3)n2)C[C@@H]1C = 0.021
C=CC(=O)N1[C@H](C)CN(c2cc(O[C@@H](C)[C@@H]3CCCN3C)nc(-c3cc([C@@]4(C)CCCc5sc(N)c(C#N)c54)no3)n2)C[C@@H]1C = 0.02
C=CC(=O)N1[C@@H](C)CN(c2nc(-c3cc([C@@]4(C)CCCc5sc(N)c(C#N)c54)on3)nc(O[C@@H](C)[C@@H]3CCCN3C)c2Cl)C[C@@H]1C = 0.002
C=CC(=O)N1CCC(Oc2cc(N3CCN(C)C[C@@H]3C)nc(-c3cc(C4(C)CCCc5sc(N)c(C#N)c54)on3)n2)CC1 (stereo partly drawn) = 0.014
C=CC(=O)N1[C@H](C)CN(c2cc(O[C@@H](C)[C@@H]3CCCN3C)nc(-c3cc([C@@]4(C)CCCc5sc(N)c(C#N)c54)sn3)n2)C[C@@H]1C = 0.009

// next entry
Task: Which measured fraction unbound value corresponds to C=CC(=O)N1CCN(c2nc(=O)n(-c3c(C)ccnc3C(C)C)c3nc(-c4c(O)cccc4F)c(F)cc23)[C@@H](C)C1 [sotorasib, reference compound] ?
Output: 0.027

---

protocol_text: Plasma protein binding (equilibrium dialysis), mouse plasma
Format: in vitro ADME
setup_conditions: read-out: PPB mouse fu
Task for the reader: assign each of the following molecules its reported fraction unbound.
Numbers only.

C=CC(=O)N1[C@@H](C)CN(c2cc(O[C@@H](C)[C@@H]3CCCN3C)nc(-c3cc([C@@]4(C)CCCc5sc(N)c(C#N)c54)on3)n2)C[C@@H]1C = 0.007
C=C(F)C(=O)N1CCN(c2nc(OC[C@@H]3CCCN3C)nc3c2CCN(c2cccc4cccc(Cl)c24)C3)C[C@@H]1CC#N [adagrasib, reference compound] = 0.004
C=CC(=O)N1CCC(Oc2cc(N3CCN(C)C[C@@H]3C)nc(-c3cc(C4(C)CCCc5sc(N)c(C#N)c54)no3)n2)CC1 (some centres unmarked) = 0.001
C=CC(=O)N1CCC(Oc2cc(N3CCN(C)C[C@@H]3C)nc(-c3cc(C4(C)CCCc5sc(N)c(C#N)c54)on3)n2)CC1 (some centres unmarked) = 0.001
COC/C=C/C(=O)N1CCN(c2cc(O[C@@H](C)[C@@H]3CCCN3C)nc(-c3cc([C@@]4(C)CCCc5sc(N)c(C#N)c54)sn3)n2)CC12CC2 = 0.003

// next entry
Task: Which measured fraction unbound value corresponds to C=CC(=O)N1CCN(c2cc(O[C@@H](C)[C@@H]3CCCN3C)nc(-c3cc([C@@]4(C)CCCc5sc(N)c(C#N)c54)on3)n2)CC12CC2 ?
Output: 0.004

---

Tested on: ERK phosphorylation in NCI-H358_Cas9_SOS2
protocol_text: ERK phosphorylation assay 2 (AlphaLISA SureFire Ultra p-ERK1/2), SOS2 knock-out
Type: cell-based
setup_conditions: Homo sapiens, NCI-H358; assay 2 (marked with *); read-out: IC50 H358 pERK
recorded_endpoint: IC50 (nM)
Answers are plain numbers, in nM.

Recorded results for 2 compounds are shown here.
COC/C=C/C(=O)N1CCN(c2cc(O[C@@H](C)[C@@H]3CCCN3C)nc(-c3cc(C4(C)CCCc5sc(N)c(C#N)c54)no3)n2)CC1 (stereo partly drawn) = 46.2
C=CC(=O)N1CCC(Oc2cc(N3CCN(C)C[C@@H]3C)nc(-c3cc(C4(C)CCCc5sc(N)c(C#N)c54)on3)n2)CC1 (stereo partly drawn) = 12.7

Task: Which measured IC50 value corresponds to C=CC(=O)N1CCN(c2cc(O[C@@H](C)[C@@H]3CCCN3C)nc(-c3cc([C@@]4(C)CCCc5sc(N)c(C#N)c54)sn3)n2)CC12CC2 ?
Output: 3.1

---

target_or_system: KRAS G12C::SOS1 protein-protein interaction (Homo sapiens, UniProt P01116, C118S/C51S/C80L/G12C)
Construct: His6 (N); host or cells: E. coli
Sequence (P01116 1-169 isoform P01116-2 G12C/C51S/C80L/C118S): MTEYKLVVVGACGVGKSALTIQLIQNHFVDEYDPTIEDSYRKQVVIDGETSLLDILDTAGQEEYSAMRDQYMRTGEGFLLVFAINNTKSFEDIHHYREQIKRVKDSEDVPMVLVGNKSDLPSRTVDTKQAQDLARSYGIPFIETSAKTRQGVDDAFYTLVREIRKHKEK
protocol_text: KRAS::SOS1 AlphaScreen binding assay
setup_conditions: KRAS G12C::SOS1 AlphaScreen
Task for the reader: assign each of the following molecules its reported IC50.
One number for each entry, in nM.

COC/C=C/C(=O)N1CCN(c2cc(O[C@@H](C)[C@@H]3CCCN3C)nc(-c3cc([C@@]4(C)CCCc5sc(N)c(C#N)c54)on3)n2)[C@H](C)C1 [Ib-14] = 6

For each listed entry, give its IC50.
1. C=CC(=O)N1[C@@H](C)CN(c2cc(O[C@@H](C)[C@@H]3CCCN3C)nc(-c3cc([C@@]4(C)CCCc5sc(N)c(C#N)c54)on3)n2)C[C@@H]1C [Ib-4]
2. C=C(F)C(=O)N1[C@@H](C)CN(c2cc(O[C@@H](C)[C@@H]3CCCN3C)nc(-c3cc([C@@]4(C)CCCc5sc(N)c(C#N)c54)on3)n2)C[C@@H]1C [Ib-11]
3. C=CC(=O)N1CCN(c2cc(O[C@@H](C)[C@@H]3CCCN3C)nc(-c3cc([C@@]4(C)CCCc5sc(N)c(C#N)c54)on3)n2)CC12CC2 [Ib-5]
4. C=CC(=O)N1[C@@H](C)CN(c2cc(O[C@@H](C)[C@@H]3CCCN3C)nc(-c3cc([C@@]4(C)CCCc5sc(N)c(C#N)c54)sn3)n2)C[C@@H]1C [Id-4]

Output:
1. 1.6
2. 15
3. 3
4. 1.7

---

Task for the reader: assign each of the following compounds its reported fraction unbound.
protocol_text: Plasma protein binding (equilibrium dialysis), mouse plasma
Format: in vitro ADME
setup_conditions: read-out: PPB mouse fu
Give bare numbers.

For each listed entry, give its fraction unbound.
1. C=CC(=O)N1CCC(Oc2cc(O[C@@H](C)[C@@H]3CCCN3C)nc(-c3cc([C@@]4(C)CCCc5sc(N)c(C#N)c54)sn3)n2)CC1
2. C=CC(=O)N1[C@H](C)CN(c2cc(O[C@@H](C)[C@@H]3CCCN3C)nc(-c3cc([C@@]4(C)CCCc5sc(N)c(C#N)c54)no3)n2)C[C@@H]1C

Output:
[0.003, 0.003]

---

Task for the reader: assign each of the following molecules its reported IC50.
System: SW837 cells
protocol_text: SW837 CTG proliferation assay (CRC)
Format: cell-based
setup_conditions: Homo sapiens; SW837 CTG proliferation; read-out: IC50 SW837
Answers are plain numbers, in nM.

C=CC(=O)N1[C@@H](C)CN(c2cc(O[C@@H](C)[C@@H]3CCCN3C)nc(-c3cc([C@@]4(C)CCCc5sc(N)c(C#N)c54)no3)n2)C[C@@H]1C = 1.62
C=CC(=O)N1CCN(c2cc(O[C@@H](C)[C@@H]3CCCN3C)nc(-c3cc([C@@]4(C)CCCc5sc(N)c(C#N)c54)no3)n2)[C@H](C)C1 = 3.67
C=CC(=O)N1CCN(c2cc(O[C@@H](C)[C@@H]3CCCN3C)nc(-c3cc([C@@]4(C)CCCc5sc(N)c(C#N)c54)on3)n2)[C@H](C)C1 = 0.67

For each listed entry, give its IC50.
1. C=CC(=O)N1CCN(c2cc(O[C@@H](C)[C@@H]3CCCN3C)nc(-c3cc([C@@]4(C)CCCc5sc(N)c(C#N)c54)sn3)n2)CC1
2. C=C(F)C(=O)N1CCN(c2cc(O[C@@H](C)[C@@H]3CCCN3C)nc(-c3cc([C@@]4(C)CCCc5sc(N)c(C#N)c54)on3)n2)[C@H](C)C1
3. C=CC(=O)N1CCN(c2cc(O[C@@H](C)[C@@H]3CCCN3C)nc(-c3cc([C@@]4(C)CCCc5sc(N)c(C#N)c54)no3)n2)CC12CC2
4. C=CC(=O)N1[C@H](C)CN(c2cc(O[C@@H](C)[C@@H]3CCCN3C)nc(-c3cc([C@@]4(C)CCCc5sc(N)c(C#N)c54)sn3)n2)C[C@@H]1C
5. C=CC(=O)N1[C@@H](C)CN(c2cc(O[C@@H](C)[C@@H]3CCCN3C)nc(-c3cc([C@@]4(C)CCCc5sc(N)c(C#N)c54)sn3)n2)C[C@@H]1C
6. COC/C=C/C(=O)N1CCN(c2cc(O[C@@H](C)[C@@H]3CCCN3C)nc(-c3cc(C4(C)CCCc5sc(N)c(C#N)c54)no3)n2)CC1 (some centres unmarked)

Output:
[0.2, 14.9, 10.6, 1.09, 0.68, 124]

For each listed entry, give its IC50.
1. C=C(F)C(=O)N1[C@@H](C)CN(c2cc(O[C@@H](C)[C@@H]3CCCN3C)nc(-c3cc([C@@]4(C)CCCc5sc(N)c(C#N)c54)no3)n2)C[C@@H]1C
2. C=CC(=O)N1[C@H](C)CN(c2cc(O[C@@H](C)[C@@H]3CCCN3C)nc(-c3cc([C@@]4(C)CCCc5sc(N)c(C#N)c54)no3)n2)C[C@@H]1C
3. COC/C=C/C(=O)N1CCN(c2cc(O[C@@H](C)[C@@H]3CCCN3C)nc(-c3cc([C@@]4(C)CCCc5sc(N)c(C#N)c54)on3)n2)[C@H](C)C1
4. C=CC(=O)N1CCC(Oc2cc(O[C@@H](C)[C@@H]3CCCN3C)nc(-c3cc([C@@]4(C)CCCc5sc(N)c(C#N)c54)sn3)n2)CC1

Output:
[36.6, 7.15, 11.3, 0.35]
